PROCEDURE_TEXT: In vitro cytotoxicity (MTT)
Format: cell-based, hamster
MEASUREMENT_PARAMETERS: hamster, CHO-K1 cells; read-out: lethal dose for 50% of the cells (LD50)
REPORTED_PROPERTY: CC50

Prompt: Please give measured CC50 of the following entry: `CC(C)C[C@@H]1NC(=O)CN(Cc2cccc3ccccc23)NC(=O)[C@H](CC(C)C)NC(=O)CN(Cc2cccc3ccccc23)NC(=O)[C@H](CCCCN)NC(=O)CN(CCCCN)NC1=O`
Completion: ~40 µg/mL
